// provenance: patent US20260209208A1

# TESTED TARGET: recombinant human PMYT-1 (Myt1 kinase) (Homo sapiens)
# Construct: full length PMYT-1 was expressed by baculovirus in insect cells using a N-terminal GST tag
# Sequence (Q99640 whole entry): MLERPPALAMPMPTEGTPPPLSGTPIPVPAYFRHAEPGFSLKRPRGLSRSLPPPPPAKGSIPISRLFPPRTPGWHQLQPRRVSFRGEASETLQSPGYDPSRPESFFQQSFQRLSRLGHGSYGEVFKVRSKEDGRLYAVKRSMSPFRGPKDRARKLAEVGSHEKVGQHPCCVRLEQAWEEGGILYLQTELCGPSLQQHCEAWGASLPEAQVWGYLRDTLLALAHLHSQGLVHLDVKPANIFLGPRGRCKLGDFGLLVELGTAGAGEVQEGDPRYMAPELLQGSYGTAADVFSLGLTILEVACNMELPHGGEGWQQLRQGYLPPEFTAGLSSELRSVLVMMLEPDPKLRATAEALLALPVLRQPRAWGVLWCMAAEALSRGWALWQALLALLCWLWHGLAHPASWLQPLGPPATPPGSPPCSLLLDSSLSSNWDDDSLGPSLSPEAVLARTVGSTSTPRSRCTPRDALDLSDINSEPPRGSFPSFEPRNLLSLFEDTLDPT
# ASSAY: LanthaScreen Europium (Eu) Kinase Binding Assay for Myt1 kinase
# CONDITION INFO: TR-FRET tracer 178 displacement, GST-tagged full length PMYT-1, 60 min, room temperature; mean IC50; read-out: LANTHA Kinase Binding for PMyt1
pIC50: −log10 of the molar value.
Quick reference: pIC50 of the listed items.

Sample answers from the record:
Cc1ccc(O)cc1-n1nc(-c2cccc(C3CCNCC3)c2)c(C(N)=O)c1N [Compound 8] :: < 6.60
Cc1ccc(O)c(C)c1-n1nc(-c2coc3ccccc23)c(C(N)=O)c1N [Compound 82] :: ≥ 8.00

Next molecule, please.
Qu. Field request: pIC50 | item: Cc1ccc2[nH]nc(C)c2c1-n1nc(-c2ccco2)c(C(N)=O)c1N (atropisomer, axis not shown) [Compound 116]
Ans. < 6.60

###

# TESTED TARGET: recombinant human PMYT-1 (Myt1 kinase) (Homo sapiens)
# Construct: full length PMYT-1 was expressed by baculovirus in insect cells using a N-terminal GST tag
# ASSAY: LanthaScreen Europium (Eu) Kinase Binding Assay for Myt1 kinase
# CONDITION INFO: TR-FRET tracer 178 displacement, GST-tagged full length PMYT-1, 60 min, room temperature; mean IC50; read-out: LANTHA Kinase Binding for PMyt1
pIC50: −log10 of the molar value.
READOUT TYPE: pIC50

The following molecules have reported results that may help.
CC#Cc1coc(-c2nn(-c3c(C)ccc(O)c3C)c(N)c2C(N)=O)c1 [Compound 114] :: ≥ 8.00
Cc1ccccc1-c1nn(-c2c(C)ccc(O)c2C)c(N)c1C(N)=O [Compound 66] :: < 6.60
Cc1ccc(O)c(C)c1-n1nc(-c2cccc(F)c2)c(C(N)=O)c1N [Compound 61] :: 7.00 to 8.00

Qu. Recorded pIC50 for C=Cc1coc(-c2nn(-c3c(C)ccc(O)c3C)c(N)c2C(N)=O)c1 [Compound 96] , please?
Ans. ≥ 8.00

Qu. Could you tell me which pIC50 is on file for Cc1ccc(O)c(C)c1-n1nc(-c2cc3ccccc3o2)c(C(N)=O)c1N (single isomer, unassigned) [Compound 109] ?
Ans. < 6.60

Qu. Which pIC50 is listed for Cc1ccc2[nH]ncc2c1-n1nc(-c2ccco2)c(C(N)=O)c1N [Compound 84] ?
Ans. 7.00 to 8.00

Qu. # get_value(readout='pIC50', item= COc1ccc2oc(-c3nn(-c4c(C)ccc(O)c4C)c(N)c3C(N)=O)cc2c1 [Compound 115] )
Ans. ≥ 8.00
